pIC50: −log10 of the molar value.
observable: pIC50

## Task Lab request: please report pIC50 under test system Cyclin-dependent kinase 8 (Homo sapiens, UniProt P49336) for C[C@]12CC[C@H](O)CC1=CC[C@@H]1[C@@H]2CC[C@]2(C)C(c3ccc4cn[nH]c4c3)=CC[C@@H]12
## Result ≤ 5.22

## Task Lab request: please report pIC50 under test system Cyclin-dependent kinase 8 (Homo sapiens, UniProt P49336) for CN(C)[C@H]1CC[C@@]2(C)C(=CC[C@H]3[C@@H]4CC[C@H](c5ccc6ccncc6c5)[C@@]4(C)CC[C@@H]32)C1
## Result ≥ 7.00

## Task Lab request: please report pIC50 under test system Cyclin-dependent kinase 8 (Homo sapiens, UniProt P49336) for C[C@]12CC[C@H](O)CC1=CC[C@@H]1[C@@H]2CC[C@]2(C)C(c3ccc4[nH]ncc4c3)=CC[C@@H]12
## Result ≤ 5.22

## Task Lab request: please report pIC50 under test system Cyclin-dependent kinase 8 (Homo sapiens, UniProt P49336) for C[C@]12CC[C@H](O)CC1=CC[C@@H]1[C@@H]2CC[C@]2(C)C(c3ccc4cnccc4c3)=CC[C@@H]12
## Result ≤ 5.22

## Task Lab request: please report pIC50 under test system Cyclin-dependent kinase 8 (Homo sapiens, UniProt P49336) for CC(=O)N(C)[C@H]1CC[C@@]2(C)[C@@H](CC[C@@H]3[C@@H]2CC[C@]2(C)[C@@H](c4ccc5ccncc5c4)CC[C@@H]32)C1
## Result ≥ 7.00

## Task Lab request: please report pIC50 under test system Cyclin-dependent kinase 8 (Homo sapiens, UniProt P49336) for C[C@]12CC[C@H]3[C@@H](CC=C4C[C@@H](O)CC[C@@]43C)[C@@H]1CC[C@@H]2c1ccc2cnncc2c1
## Result ≤ 5.22

## Task Lab request: please report pIC50 under test system Cyclin-dependent kinase 8 (Homo sapiens, UniProt P49336) for C[C@]12CC[C@H]3[C@@H](CC=C4C[C@@H](O)CC[C@@]43C)[C@@H]1CC[C@@H]2c1ccc2ccncc2c1
## Result ≥ 7.00

## Task Lab request: please report pIC50 under test system Cyclin-dependent kinase 8 (Homo sapiens, UniProt P49336) for CN(C)[C@H]1CC[C@@]2(C)[C@@H](CC[C@@H]3[C@@H]2CC[C@]2(C)[C@@H](c4ccc5ccncc5c4)CC[C@@H]32)C1
## Result ≥ 7.00

## Task Lab request: please report pIC50 under test system Cyclin-dependent kinase 8 (Homo sapiens, UniProt P49336) for C[C@]12CC[C@H](n3ccnn3)C[C@@H]1CC[C@@H]1[C@@H]2CC[C@]2(C)[C@@H](c3ccc4ccncc4c3)CC[C@@H]12
## Result ≥ 7.00

## Task Lab request: please report pIC50 under test system Cyclin-dependent kinase 8 (Homo sapiens, UniProt P49336) for C[C@]12CC[C@H]3[C@@H](CC=C4C[C@@H](O)CC[C@@]43C)[C@@H]1CC[C@@H]2c1ccc2[nH]ncc2c1
## Result ≤ 5.22

## Task Lab request: please report pIC50 under test system Cyclin-dependent kinase 8 (Homo sapiens, UniProt P49336) for C[C@]12CC[C@H]3[C@@H](CC=C4C[C@@H](O)CC[C@@]43C)[C@@H]1CC[C@@H]2c1ccc2cn[nH]c2c1
## Result ≤ 5.22

## Task Lab request: please report pIC50 under test system Cyclin-dependent kinase 8 (Homo sapiens, UniProt P49336) for CN(C)[C@@H]1CC[C@@]2(C)[C@@H](CC[C@@H]3[C@@H]2CC[C@]2(C)[C@@H](c4ccc5ccncc5c4)CC[C@@H]32)C1
## Result ≥ 7.00

## Task Lab request: please report pIC50 under test system Cyclin-dependent kinase 8 (Homo sapiens, UniProt P49336) for C[C@]12CC[C@H](O)CC1=CC[C@@H]1[C@@H]2CC[C@]2(C)C(c3ccc4cnncc4c3)=CC[C@@H]12
## Result ≤ 5.22
